The entries below are paired with their reported AC50.
test system: thyroid hormone receptor (endogenous TRα and TRβ); parameters: species or system GH3-TRE-Luc (rat pituitary); GH3-TRE-Luc luciferase reporter, antagonist mode against 1 nM T3, loss of signal, qHTS; conditions: read-out: Average AC50 (uM) GH3-TRE-Antag, antagonist mode, 1 nM T3, no GH3 cytotoxicity hit
The response must be a number in µM with no trailing unit.

Sample records with AC50:
C=C/C(C)=C/C/C=C(\C)CCC=C(C)C [alpha-Farnesene]; 44.9
O=C(CCCN1CCC(O)(c2ccc(Br)cc2)CC1)c1ccc(F)cc1 [Bromperidol]; 12.9

Which value of AC50 has been reported for O=C(O)C1(C(=O)Nc2ccc(Cl)cc2Cl)CC1 [Cyclanilide] in the records?
64.4

---

Measured AC50 of individual entries
system: thyroid hormone receptor (endogenous TRα and TRβ); set-up: species or system GH3-TRE-Luc (rat pituitary); GH3-TRE-Luc luciferase reporter, antagonist mode against 1 nM T3, loss of signal, qHTS; details: read-out: Average AC50 (uM) GH3-TRE-Antag, antagonist mode, 1 nM T3, no GH3 cytotoxicity hit
Structures can show the parent of a compound that is named as a salt.
I only need the number, in µM, no unit after it.

Before answering, review these 5 worked examples.
Cc1oc(C)c(C(=O)Nc2ccccc2)c1C; 23.1
Cc1nc2ccccn2c(=O)c1CCN1CCC(C(=O)c2ccc(F)cc2)CC1; 47
CCCCCCOc1ccc(N)cc1; 59.8
O=C(C[C@H]1NCCC[C@@H]1O)Cn1cnc2cc(Br)c(Cl)cc2c1=O (racemic) [Halofuginone hydrochloride]; 46.9
CC1(C)NC(=O)N(c2ccc([N+](=O)[O-])c(C(F)(F)F)c2)C1=O [Nilutamide]; 38.5

The record that follows has no AC50 shown yet.
Look up AC50 with thyroid hormone receptor (endogenous TRα and TRβ) for this compound: CCCC(=O)OC[C@@H](OC(=O)CCC)[C@@H](OC(=O)CCC)[C@H](Cn1c2nc(=O)[nH]c(=O)c-2nc2cc(C)c(C)cc21)OC(=O)CCC [Riboflavin tetrabutyrate]
42

---

tested on: thyroid hormone receptor (endogenous TRα and TRβ); design: species or system GH3-TRE-Luc (rat pituitary); GH3-TRE-Luc luciferase reporter, antagonist mode against 1 nM T3, loss of signal, qHTS; conditions: read-out: Average AC50 (uM) GH3-TRE-Antag, antagonist mode, 1 nM T3, no GH3 cytotoxicity hit
outcome_measure: AC50 (µM)
Numeric answer only, unit µM assumed.

Recorded AC50 of CCCCC(CC)COC(=O)C(C#N)=C(c1ccccc1)c1ccccc1 (centres unmarked) , please.
31

CCC(C)COC(=O)CC(C)C (centres unmarked) [2-Methylbutyl isovalerate] ?
71.8

Repeat with Cn1c(CCCC(=O)O)nc2cc(N(CCCl)CCCl)ccc21 [Bendamustine]
28

---

test system: thyroid hormone receptor (endogenous TRα and TRβ); set-up: species or system GH3-TRE-Luc (rat pituitary); GH3-TRE-Luc luciferase reporter, antagonist mode against 1 nM T3, loss of signal, qHTS; conditions: read-out: Average AC50 (uM) GH3-TRE-Antag, antagonist mode, 1 nM T3, no GH3 cytotoxicity hit
Structures can show the parent of a compound that is named as a salt.
outcome_measure: AC50 (µM)
Enter your answer as a number in µM; do not include the unit.

The cases that follow already have their AC50 on record.
CC(C)CCCCCCCCCCCCCCC(=O)O [Isooctadecanoic acid]; 16.3
CCCOc1ccc2nc(NC(=O)OC)sc2c1 [Tioxidazole]; 2.52
Nc1ccc(Oc2ccc(Cl)cc2)cc1 [4-Chloro-4'-aminodiphenyl ether]; 40.7
CN(C)CCN1C(=O)c2ccccc2N(C)c2ccccc21 [Dibenzepin hydrochloride]; 36.6
C/C=C1\C(=O)C[C@H]2[C@@H]3CCC4=CC(=O)CC[C@]4(C)[C@H]3CC[C@]12C [Guggulsterone Z]; 39.2
CC(C)CCC[C@@H](C)[C@H]1CC(=O)C2=C3CC[C@H]4C[C@@H](O)CC[C@]4(C)[C@H]3CC[C@@]21C [Colestolone]; 7.21

Tell me reported AC50 for CCN(CC)CCOc1ccc2c(c1)C(=O)c1cc(OCCN(CC)CC)ccc1-2 [Tilorone] , tested with thyroid hormone receptor (endogenous TRα and TRβ).
17.6
